- Test system: CCRF-CEM leukemia
- Measurement Description: NCI tumour cell line growth inhibition, 48 h; in the data active means GI50 below about 0.43 µM; inactive means the rest
Mark one answer only. Choices: 1.0 for active, 0.0 for inactive

Some solved entries appear below for comparison.
>  <Compound>
COc1ccc(CNc2c3ccccc3nc3ccccc23)cc1F

>  <Class Name>
0.0

$$$$
>  <Compound>
C=CC12CCN(CC1)C(C(O)c1ccnc3ccc(OC)cc13)C2 (stereo not drawn)

>  <Class Name>
0.0

$$$$
>  <Compound>
Cc1nc2c(Br)cc(Br)cc2c(=O)n1-c1nnc(-c2cccc(Cl)c2Cl)c(N)n1

>  <Class Name>
0.0

$$$$
>  <Compound>
C[C@H](CCOc1cccc(CC(=O)O)c1)N(Cc1cccc(C(F)(F)F)c1Cl)CC(c1ccccc1)c1ccccc1

>  <Class Name>
0.0

$$$$

# evaluate next
**Query** Please indicate how the test categorized COc1ccc(-c2c(C#N)c(N3CCOCC3)nc3[nH]c(=S)[nH]c(=S)c23)cc1OC .
**Result** 0.0

----------
- System: OVCAR-8 ovarian
- Measurement Description: NCI tumour cell line growth inhibition, 48 h
Result Type: TGI

>  <Compound>
CO/N=C(/C(=O)OC)c1ccccc1COc1ccccc1C(F)(F)F

>  <Val>
> 100 µM

$$$$

Would you be so kind as to report TGI for each listed record?
1. CC(C(=O)COCc1ccccc1)P1(=O)OC(C)(C)CN1C(C)(C)C (stereo not given)
2. O=C1C(=Nc2ccc(Nc3ccccc3)cc2)Oc2ccccc21
3. COc1cc(Nc2ccc3c(c2)CCC3)nc(OC)n1
4. CSc1nc2c(c(N(C)C)n1)C(O)n1c(nc3ccccc31)S2 (stereo not given)

**Result**
1: > 100 µM; 2: 6.07 µM; 3: > 100 µM; 4: > 56.8 µM

For each of the compounds below, state TGI.
1. Nc1c(S(=O)(=O)c2ccc(Cl)cc2)c2nc3ccccc3nc2n2ccnc12
2. COC(=O)/C=C/c1cc(OC(C)=O)c2c(c1)C(C(=O)OC)C(c1ccc(OC(C)=O)c(OC(C)=O)c1)O2 (stereo not given)
3. COc1cc2c(cc1OCCCN1C(=O)c3cccc4cccc(c34)C1=O)N=C[C@@H]1CCCN1C2=O

**Result**
1. > 100 µM
2. > 72.9 µM
3. > 100 µM

Look up TGI for the entries below, preserving their order.
1. CC12c3ccccc3C(OC=O)(c3ccccc31)C1(C)c3ccccc3C2(OC=O)c2ccccc21
2. CN1CC[C@]2(c3cccc(O)c3)CC(=O)/C(=C/c3ccccc3)[C@@H]1C2

**Result**
1. > 100 µM
2. 10.5 µM

----------
Give TGI for every item shown.
- Tested on: SN12C renal
- Measurement Description: NCI tumour cell line growth inhibition, 48 h

Worked cases, TGI given:
>  <Molecule>
CSc1nc2c(c(N(C)C)n1)C(O)n1c(nc3ccccc31)S2 (stereo unspecified)

>  <TGI>
> 100 µM

$$$$
>  <Molecule>
COc1ccc(N2C(=O)C3c4[nH]c5cc(C)ccc5c4C4CCC(C(C)(C)C)CC4C3C2=O)cc1 (stereo unspecified)

>  <TGI>
> 10 µM

$$$$
>  <Molecule>
COc1nc(=O)n(C2C=CC(=O)O2)cc1F (stereo unspecified)

>  <TGI>
25.7 µM

$$$$

// each listed molecule needs a value for TGI
1. CC1=C(C#N)c2nc3ccccc3n2C(=O)C1(C)CCO (stereo unspecified)
2. CC[C@@H]1NC(C(=O)OC)Cc2c1[nH]c1ccccc21 (stereo partly specified)
3. COC(=O)c1c(C)cc(OC)c(C/C=C(\C)CCCc2coc(C=C(C)C)c2)c1OC
4. CCc1n[nH]c(=O)n1-c1ccc2ccccc2c1
5. Cc1ccsc1/C=N/Nc1cnccn1

**Result**
1. > 100 µM
2. > 100 µM
3. > 100 µM
4. > 100 µM
5. > 100 µM

Batch lookup, TGI per entry.
1. COc1ccc(NC(=O)CSc2nnc(-c3ccc(NC(C)=O)cc3)o2)cc1
2. O=C1C(=Nc2ccc(Nc3ccccc3)cc2)Oc2ccccc21
3. CC(C)C1CN(C(=O)OCc2ccccc2)C2N1C(=O)C2(C)OCc1ccccc1 (stereo unspecified)

**Result**
1: 41.9 µM; 2: 4.62 µM; 3: > 100 µM

----------
Field: TGI. Provide a value for each of the compounds that follow.
- Tested on: PC-3 prostate
- Measurement Description: NCI tumour cell line growth inhibition, 48 h

Here's what some known entries look like.
>  <Compound>
COc1ccc(/C=N/NC(=O)c2ccc(O)c(CN(C)C)c2)cc1

>  <Target System>
PC-3 prostate

>  <TGI>
> 100 µM

$$$$
>  <Compound>
COC(=O)C1=CN(CC2=CC(=O)C(C)=CC2=O)C=C(C(=O)OC)C1c1ccccc1OC

>  <Target System>
PC-3 prostate

>  <TGI>
29.8 µM

$$$$
>  <Compound>
C=C(CN(C)Cc1ccccc1)c1ccc(NC(=O)c2ccc(C(=C)CN(C)Cc3ccccc3)cc2)cc1

>  <Target System>
PC-3 prostate

>  <TGI>
23 µM

$$$$
>  <Compound>
CCOC(=O)Nc1c(C)nc2ccccn12

>  <Target System>
PC-3 prostate

>  <TGI>
> 100 µM

$$$$

Batch request: TGI per item, same order as input.
1. COc1ccc(/C=C\c2cc(OC)c(OC)c(OC)c2)cc1OCC(=O)O
2. CNc1nc(N)nc(Nc2ccc(I)cc2)c1N=O

**Result**
["> 91.3 µM", "> 100 µM"]

----------
- Tested on: HS 578T breast
- Measurement Description: NCI tumour cell line growth inhibition, 48 h; in the data active = GI50 below about 0.43 µM; inactive = the rest
Please reply with one of these outcomes: active, inactive

>  <Chemical Structure>
CCCCCCn1c(-c2ccc(C(=O)O/N=C(\N)c3ccc4c(c3)OCO4)cc2)nc(-c2ccccc2)c1-c1ccccc1

>  <Class Name>
inactive

$$$$
>  <Chemical Structure>
CNCCCNc1ccnc2cc(Cl)ccc12

>  <Class Name>
inactive

$$$$
>  <Chemical Structure>
C[C@H](CCOc1cccc(CC(=O)O)c1)N(Cc1cccc(C(F)(F)F)c1Cl)CC(c1ccccc1)c1ccccc1

>  <Class Name>
inactive

$$$$
>  <Chemical Structure>
COc1ccc(-c2cc(=O)oc3c4c(ccc23)OCN(Cc2ccc(F)cc2)C4)cc1

>  <Class Name>
inactive

$$$$
>  <Chemical Structure>
Cc1nc2c(Br)cc(Br)cc2c(=O)n1-c1nnc(-c2cccc(Cl)c2Cl)c(N)n1

>  <Class Name>
inactive

$$$$
>  <Chemical Structure>
COc1cccc2c1O/C(=C\c1ccc([N+](=O)[O-])s1)C2=O

>  <Class Name>
inactive

$$$$
>  <Chemical Structure>
COc1ccc(Cl)cc1NC(=O)c1ccc(NC2=C(Cl)C(=O)N(Cc3ccccc3)C2=O)cc1

>  <Class Name>
inactive

$$$$
>  <Chemical Structure>
COc1ccc(-c2c(C#N)c(N3CCOCC3)nc3[nH]c(=S)[nH]c(=S)c23)cc1OC

>  <Class Name>
inactive

$$$$

Now let's try a different one.
**Query** Any idea what this test logged for O=c1[nH]c(-c2cccc(F)c2)cc2cc(F)ccc12 ?
**Result** active

----------
Can you tell me TGI for the items I'm about to list?
- Test system: SF-295 CNS
- Measurement Description: NCI tumour cell line growth inhibition, 48 h
Where a SMILES comes first, the peptide text is derived from it. [ ]: non-standard residue; d: D form. The star is where a group is joined. Palmitoyl = CCCCCCCCCCCCCCCC(=O)*; Cbz = O=C(OCc1ccccc1)*; Aib = CC(C)(N)C(=O)O; OBn = c1ccc(CO*)cc1

Examples with answers:
>  <Molecule>
CC(C)C1CN(C(=O)OCc2ccccc2)C2N1C(=O)C2(C)OCc1ccccc1 (centres undefined)

>  <Result Type>
TGI

>  <Val>
> 100 µM

$$$$
>  <Molecule>
Cc1cc(C)nc(NS(=O)(=O)c2ccc(Nc3c4ccccc4nc4c(C(=O)N5CCN(CCO)CC5)cccc34)cc2)n1

>  <Result Type>
TGI

>  <Val>
> 100 µM

$$$$
>  <Molecule>
COc1cc(C2c3cc4c(cc3[C@@H](Nc3ccccc3)C3COC(=O)[C@H]23)OCO4)cc(OC)c1O (some centres undefined)

>  <Result Type>
TGI

>  <Val>
3.79 µM

$$$$
>  <Molecule>
CNc1[nH]c(=S)nc2sc3c(c12)CCCC3

>  <Result Type>
TGI

>  <Val>
> 75 µM

$$$$
>  <Molecule>
COc1c(C)c(OCC=C(C)C)cc(CO)c1CO

>  <Result Type>
TGI

>  <Val>
> 100 µM

$$$$
>  <Molecule>
CO[C@@H]1CC[C@]2(C)OC[C@H](C)[C@@H]3C[C@@H](C)[C@@H](OC(C)=O)[C@@H]4[C@H]3[C@@H]2O[C@H]4C[C@@]1(C)O

>  <Result Type>
TGI

>  <Val>
> 100 µM

$$$$

Give TGI for each listed item.
1. CCN(CCNS(C)(=O)=O)c1ccc(N)c(C)c1
2. O=C1c2cccc3cccc(c23)C(=O)N1CCN(CCO)CCO
3. COc1cc(/C=C2\CCCCC3=C2N=C2SC(C)=CN2C3c2cc(OC)c(OC)c(OC)c2)cc(OC)c1OC (centres undefined)
4. CC(NC(=O)C(C)(C)NC(=O)C(CC(=O)OCc1ccccc1)NC(=O)OCc1ccccc1)C(N)=O (centres undefined) (Cbz-Asp(OBn)-[Aib]-Ala-NH2; configuration not given here)
5. O=[N+]([O-])c1cccnc1N=Nc1c(O)[nH]c2ccccc12
6. c1ccc(C(C(=Nc2ccc(Cc3ccc(N=C(C(c4ccccc4)c4ccccc4)N4CC4)cc3)cc2)N2CC2)c2ccccc2)cc1
7. COc1ccc(CC(N)=O)cc1OC

**Result**
1. 34.3 µM
2. > 100 µM
3. > 100 µM
4. > 100 µM
5. 38.7 µM
6. 27.5 µM
7. > 1250 µM

State the recorded TGI for every item in the following list.
1. O=C(CC(=O)Nc1ccccc1)NNC(Sc1ccccc1)c1cc(N=Nc2ccc(Br)cc2)ccc1O (centres undefined)
2. CCCCCCn1c(-c2ccc(C(=O)O/N=C(\N)c3ccc4c(c3)OCO4)cc2)nc(-c2ccccc2)c1-c1ccccc1
3. O=C(c1ccc([N+](=O)[O-])cc1[N+](=O)[O-])N(/N=C/C=C/c1ccccc1)c1nnc(-c2ccccc2)c(-c2ccccc2)n1
4. COc1nc(=O)n(C2C=CC(=O)O2)cc1F (centres undefined)
5. C=C(CN(C)Cc1ccccc1)c1ccc(NC(=O)c2ccc(C(=C)CN(C)Cc3ccccc3)cc2)cc1
6. CCCCCCCCCCCCCCCC(=O)N1CCCC1C(=O)NCC(=O)NC(Cc1ccccc1)C(=O)N1CCCC1C(=O)NC(CO)C(=O)NC(Cc1ccc(O)cc1)C(=O)NC(CCCCN)C(=O)NC(CC(C)C)C(=O)NC(CCCN=C(N)N)C(=O)N1CCCC1C(=O)NCC(N)=O (centres undefined) (Palmitoyl-PGFPSYKLRPG-NH2; configuration not given here)
7. COc1ccc(Cl)cc1NC(=O)c1ccc(NC2=C(Cl)C(=O)N(Cc3ccccc3)C2=O)cc1

**Result**
> 10 µM
3.35 µM
> 100 µM
66.1 µM
> 100 µM
75.9 µM
> 100 µM

Quick request: TGI for each listed item, please.
1. COc1c2occc2c(N)c2ccc(=O)oc12
2. COC(=O)c1c(C)cc(OC)c(C/C=C(\C)CCCc2coc(C=C(C)C)c2)c1OC
3. CCOc1c(OC)cc(-c2nc3n(n2)C(=O)C(CC)S3)cc1OC (centres undefined)
4. CC(C)N1CCN(c2ccc(OCC3COC(Cn4cncn4)(c4ccc(Cl)cc4Cl)O3)cc2)CC1 (centres undefined)
5. NNc1ncnc2nc[nH]c12
6. O=c1[nH]c(-c2cccc(F)c2)cc2cc(F)ccc12

**Result**
["> 100 µM", "> 100 µM", "> 10 µM", "26.6 µM", "> 72.6 µM", "> 100 µM"]

Report TGI for each item below.
1. CCOC(=O)C(Br)=C1OC(=O)c2ccccc2-c2ccccc21 (mixture of isomers)
2. Cc1ccc2c(c1)c1ccc3c(c1n2C)C(=O)C=CC3=O
3. Cc1ccsc1/C=N/Nc1cnccn1
4. Cc1nc2c(N)ncnc2o1
5. CCC(C)(C)n1c(C)nc2c1C(=O)c1ccccc1C2=O
6. Cc1nc2ccccc2c(-n2cccn2)c1CCn1cccn1
7. Cc1cc(C(=O)CSC(=S)SC(C)(C)C)ccc1Cl
8. CCOC(=O)Cc1csc(Nc2ccccc2[N+](=O)[O-])n1

**Result**
1. 54.4 µM
2. > 10 µM
3. > 100 µM
4. > 100 µM
5. > 100 µM
6. > 100 µM
7. 37.1 µM
8. > 100 µM
